- System: Drosophila melanogaster
- testSummary: One-choice (single-trap) olfactory trap assay
- Format: in vivo
- testParameters: one-choice trap; 25% concentration; starved flies; 6 hours
metric: fly death during the 6-hour screen

Consider the worked cases shown below.
CN1CCN(C(=O)c2ccccc2[N+](=O)[O-])CC1 [Compound 4oE]: some fly death
CN1CCN(C(=O)c2ccccc2F)CC1 [Compound 2oE, 1-methyl-4-[o-fluorobenzoyl]piperazine]: some fly death
O=C(c1cccc(F)c1)N1CCCC1 [Compound 2mB, N-[m-fluorobenzoyl]pyrrolidine]: no fly death
Cc1ccccc1C(=O)N1CCOCC1 [Compound 1oD]: some fly death
O=C(c1cccc(C(F)(F)F)c1)N1CCCC1 [Compound 3mB]: no fly death

Query block: Return value of fly death during the 6-hour screen for input Cc1cccc(C(=O)N2CCN(C)CC2)c1 [Compound 1mE, 1-methyl-4-(3-methylbenzoyl)piperazine] , no commentary.
Result block: some fly death

Query block: Return value of fly death during the 6-hour screen for input O=C(c1cccc(C(F)(F)F)c1)N1CCOCC1 [Compound 3mD] , no commentary.
Result block: some fly death

Query block: Return value of fly death during the 6-hour screen for input O=C(c1cccc(C(F)(F)F)c1)N1CCCCC1 [Compound 3mC] , no commentary.
Result block: no fly death

Query block: Return value of fly death during the 6-hour screen for input Cc1cccc(C(=O)N2CCCCC2)c1 [Compound 1mC] , no commentary.
Result block: no fly death

Query block: Return value of fly death during the 6-hour screen for input O=C(c1ccccc1F)N1CCCCC1 [Compound 2oC] , no commentary.
Result block: no fly death
